These entries and their values trace back to ChEMBL document CHEMBL1132364.

Target: Glutamate NMDA receptor; Grin1/Grin2b (Rattus norvegicus, UniProt P35439+Q00960)
Sequence (Q00960 whole entry, other chains not shown): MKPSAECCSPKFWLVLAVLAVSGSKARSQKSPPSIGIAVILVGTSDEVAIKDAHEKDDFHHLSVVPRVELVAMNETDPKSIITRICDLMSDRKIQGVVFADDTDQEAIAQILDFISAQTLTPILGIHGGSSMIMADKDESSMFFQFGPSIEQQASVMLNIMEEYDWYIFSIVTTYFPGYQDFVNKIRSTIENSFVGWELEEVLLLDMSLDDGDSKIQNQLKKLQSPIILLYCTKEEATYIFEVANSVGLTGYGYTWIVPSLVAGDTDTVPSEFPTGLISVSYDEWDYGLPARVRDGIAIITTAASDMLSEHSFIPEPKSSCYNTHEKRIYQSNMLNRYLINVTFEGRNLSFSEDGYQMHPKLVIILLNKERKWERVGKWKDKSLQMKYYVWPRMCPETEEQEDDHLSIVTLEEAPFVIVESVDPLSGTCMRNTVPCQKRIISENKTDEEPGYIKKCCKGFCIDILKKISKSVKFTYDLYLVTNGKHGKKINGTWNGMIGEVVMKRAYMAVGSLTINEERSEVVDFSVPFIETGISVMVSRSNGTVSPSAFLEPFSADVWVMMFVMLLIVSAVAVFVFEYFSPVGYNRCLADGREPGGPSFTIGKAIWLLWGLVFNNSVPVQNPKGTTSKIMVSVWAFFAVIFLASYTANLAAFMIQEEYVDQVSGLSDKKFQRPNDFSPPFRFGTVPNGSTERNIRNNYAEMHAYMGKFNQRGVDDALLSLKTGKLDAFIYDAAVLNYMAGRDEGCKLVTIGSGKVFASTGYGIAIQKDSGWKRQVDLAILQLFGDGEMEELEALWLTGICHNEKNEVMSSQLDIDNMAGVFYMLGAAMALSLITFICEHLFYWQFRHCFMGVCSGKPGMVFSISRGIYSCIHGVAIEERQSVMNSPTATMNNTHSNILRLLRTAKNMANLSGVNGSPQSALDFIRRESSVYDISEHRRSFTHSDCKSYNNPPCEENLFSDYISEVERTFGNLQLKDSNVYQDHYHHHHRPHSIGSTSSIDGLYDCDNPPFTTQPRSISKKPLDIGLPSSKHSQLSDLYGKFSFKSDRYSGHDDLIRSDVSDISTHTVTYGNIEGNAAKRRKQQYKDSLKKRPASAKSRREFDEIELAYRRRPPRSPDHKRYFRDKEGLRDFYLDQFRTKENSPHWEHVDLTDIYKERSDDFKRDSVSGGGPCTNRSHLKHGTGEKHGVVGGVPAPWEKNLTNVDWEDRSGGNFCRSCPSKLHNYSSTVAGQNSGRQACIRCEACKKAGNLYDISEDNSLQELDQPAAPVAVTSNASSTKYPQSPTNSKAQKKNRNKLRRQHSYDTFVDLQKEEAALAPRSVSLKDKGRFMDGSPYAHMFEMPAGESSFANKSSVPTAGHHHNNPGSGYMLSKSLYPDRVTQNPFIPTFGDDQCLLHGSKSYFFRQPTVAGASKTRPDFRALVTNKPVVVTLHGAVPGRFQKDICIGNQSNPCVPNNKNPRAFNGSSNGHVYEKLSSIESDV
Assay: Antagonistic activity against N-methyl-D-aspartate glutamate receptor 1/2B.
Readout: IC50

The cases that follow already have their IC50 on record.
Smiles record | Tested on | Readout | Result value
N#C/C(=C\c1ccc(O)c(O)c1)C(=O)NCCc1ccccc1 | Glutamate NMDA receptor; Grin1/Grin2b (Rattus norvegicus, UniProt P35439+Q00960) | IC50 | 1.7 µM
O=C(/C=C/c1cc(Cl)ccc1Cl)NCCCCc1ccccc1 | Glutamate NMDA receptor; Grin1/Grin2b (Rattus norvegicus, UniProt P35439+Q00960) | IC50 | > 100 µM
O=C(/C=C/c1ccc(O)cc1)NCCc1ccc(Cl)cc1 | Glutamate NMDA receptor; Grin1/Grin2b (Rattus norvegicus, UniProt P35439+Q00960) | IC50 | 0.33 µM
O=C(/C=C/c1ccc(Cl)cc1)NCCc1ccc(Cl)cc1 | Glutamate NMDA receptor; Grin1/Grin2b (Rattus norvegicus, UniProt P35439+Q00960) | IC50 | > 100 µM
N#C/C(=C\c1cccc(O)c1)C(=O)NCCCCc1ccccc1 | Glutamate NMDA receptor; Grin1/Grin2b (Rattus norvegicus, UniProt P35439+Q00960) | IC50 | > 100 µM
N#C/C(=C\C(=O)NCCc1ccc(O)cc1)c1ccccc1 | Glutamate NMDA receptor; Grin1/Grin2b (Rattus norvegicus, UniProt P35439+Q00960) | IC50 | 46 µM
O=C(/C=C/c1ccc(Cl)cc1Cl)NCCc1ccc(O)cc1 | Glutamate NMDA receptor; Grin1/Grin2b (Rattus norvegicus, UniProt P35439+Q00960) | IC50 | 19 µM
N#C/C(=C\c1ccccc1)C(=O)NCCCCc1ccccc1 | Glutamate NMDA receptor; Grin1/Grin2b (Rattus norvegicus, UniProt P35439+Q00960) | IC50 | 80 µM
O=C(/C=C/c1ccccc1)NCCc1ccc(O)cc1 | Glutamate NMDA receptor; Grin1/Grin2b (Rattus norvegicus, UniProt P35439+Q00960) | IC50 | 0.68 µM
N#C/C(=C\c1ccc(O)cc1)C(=O)NCCCCc1ccccc1 | Glutamate NMDA receptor; Grin1/Grin2b (Rattus norvegicus, UniProt P35439+Q00960) | IC50 | 0.29 µM

Query: Answer with reported IC50 of CCN(CC)CCOc1ccc(CCNC(=O)/C=C/c2ccc(Cl)cc2)cc1
Reply: 32 µM

Query: Supply measured IC50 of O=C(/C=C/c1ccc(Cl)cc1)NCCc1ccccc1 in your reply.
Reply: > 100 µM

Query: For the molecule O=C(O)COc1ccc(CCNC(=O)/C=C/c2ccc(Cl)cc2)cc1 , give its measured IC50 value.
Reply: 52 µM

Query: Determine from records and report IC50 for O=C(/C=C/c1ccc(O)cc1)NCCCCc1ccccc1
Reply: 0.077 µM

Query: Answer with the recorded IC50 for the molecule listed here: N#C/C(=C\c1ccc(Cl)cc1)C(=O)NCCc1ccc(O)cc1
Reply: 3.4 µM

Query: Please look at this molecule and report its IC50: O=C(/C=C/c1ccccc1)NCCCCc1ccccc1
Reply: 24 µM

Query: Give a short answer stating reported IC50 for C[C@@H](CN1CCC(Cc2ccccc2)CC1)[C@@H](O)c1ccc(O)cc1 .
Reply: 0.009 µM

Query: Could you please provide reported IC50 for O=C(/C=C/c1ccc(Cl)cc1)NCCc1cccc(O)c1 ? Thanks!
Reply: 7.4 µM

Query: Hello, please tell me recorded IC50 for this one: O=C(CCc1ccc(O)cc1)NCCCCc1ccccc1
Reply: 0.43 µM

Query: Please supply the value of reported IC50 for the item N#C/C(=C\c1ccc(Cl)cc1)C(=O)NCCCCc1ccccc1
Reply: > 100 µM

Query: Give the value of IC50 reported for the following: O=C(/C=C/c1ccc(O)cc1)NCCCCc1ccc(Cl)cc1
Reply: 0.125 µM

Query: Provide measured IC50 value, entry: O=C(/C=C/c1ccc(Cl)cc1)NCCc1ccccc1O
Reply: 8.3 µM

Query: Respond only with IC50 recorded for O=C(/C=C/c1ccc(O)cc1)NCCc1ccccc1
Reply: 1.5 µM

Query: Check the records and state IC50 for O=C(/C=C/c1ccc(Cl)cc1)NCCc1ccc(O)cc1
Reply: 0.17 µM
